Hey, just so you know, these numbers are from ChEMBL document CHEMBL5291721.

I'd be grateful if you could share measured AC50 for these entries.
Target: Prostaglandin G/H synthase 1 (Rattus norvegicus); note: assay procedure not described here
Assay type: functional
Give the number; µM is assumed, so skip it.

What the record says about `Cc1ccc(C(C)C)c(O)c1` : AC50 is 120

What the record says about CC(C(=O)O)c1ccc(C(=O)c2ccccc2)s1 (stereo not given) : AC50 is 0.365

* * *

Biological target: Alpha-2A adrenergic receptor (Homo sapiens); note: assay procedure not described here
Sequence (P08913 whole entry): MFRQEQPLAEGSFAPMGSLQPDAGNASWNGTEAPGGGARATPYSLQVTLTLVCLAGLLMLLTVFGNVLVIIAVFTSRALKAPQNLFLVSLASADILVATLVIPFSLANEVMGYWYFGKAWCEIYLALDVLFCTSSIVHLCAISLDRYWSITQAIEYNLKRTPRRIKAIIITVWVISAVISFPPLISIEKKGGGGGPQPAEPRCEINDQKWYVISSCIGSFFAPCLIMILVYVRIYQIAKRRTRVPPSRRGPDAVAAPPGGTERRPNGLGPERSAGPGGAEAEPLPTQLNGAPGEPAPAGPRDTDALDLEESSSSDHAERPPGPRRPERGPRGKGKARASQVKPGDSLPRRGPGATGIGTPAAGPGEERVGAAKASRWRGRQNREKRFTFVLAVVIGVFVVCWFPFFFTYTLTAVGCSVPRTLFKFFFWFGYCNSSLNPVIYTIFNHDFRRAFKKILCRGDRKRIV
Format: functional, cell-based
value-type: AC50

What the record says about C[C@@H](Cc1ccccc1)N(C)Cc1ccccc1 [BENZPHETAMINE] : AC50 is > 10 µM

What the record says about O=C(O)[C@H]1/C(=C/CO)O[C@@H]2CC(=O)N21 [CLAVULANIC ACID] : AC50 is > 30 µM

What the record says about CN(C)CCN(Cc1ccccc1)c1ccccn1 [TRIPELENNAMINE] : AC50 is > 10 µM

What the record says about C[C@H](Nc1ncnc2[nH]cnc12)c1cc2cccc(Cl)c2c(=O)n1-c1ccccc1 [DUVELISIB] : AC50 is > 30 µM

* * *

Biological target: 5-hydroxytryptamine receptor 2C (Homo sapiens); note: assay procedure not described here
Sequence (P28335 whole entry): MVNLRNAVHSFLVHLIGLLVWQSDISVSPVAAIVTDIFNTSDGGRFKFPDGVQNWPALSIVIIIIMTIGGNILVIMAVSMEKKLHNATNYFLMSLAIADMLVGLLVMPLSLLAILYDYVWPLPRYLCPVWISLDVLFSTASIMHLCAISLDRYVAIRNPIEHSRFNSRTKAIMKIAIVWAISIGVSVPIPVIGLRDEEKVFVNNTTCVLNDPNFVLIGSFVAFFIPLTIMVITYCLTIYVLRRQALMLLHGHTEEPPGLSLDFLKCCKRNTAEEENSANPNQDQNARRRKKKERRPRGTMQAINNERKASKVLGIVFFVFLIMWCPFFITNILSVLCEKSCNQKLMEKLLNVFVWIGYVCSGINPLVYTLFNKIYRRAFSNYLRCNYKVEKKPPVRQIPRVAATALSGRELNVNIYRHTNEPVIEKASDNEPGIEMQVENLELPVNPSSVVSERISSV
value-type: AC50

What the record says about CCN(CCO)CCCC(C)Nc1ccnc2cc(Cl)ccc12 (configuration not stated) [HYDROXYCHLOROQUINE] : AC50 is > 30 µM

What the record says about CCC(NC(C)C)C(O)c1ccc(O)c(O)c1 (configuration not stated) : AC50 is > 30 µM

What the record says about `O=C1CN=C(c2ccccc2Cl)c2cc([N+](=O)[O-])ccc2N1` : AC50 is > 30 µM

What the record says about Cc1c(C)c2c(c(C)c1O)CCC(C)(COc1ccc(CC3SC(=O)NC3=O)cc1)O2 (configuration not stated) : AC50 is > 30 µM

What the record says about `C[C@]12CCC(=O)C=C1[C@@H]1C[C@@H]1[C@H]1[C@@H]3[C@@H]4C[C@@H]4[C@@]4(CCC(=O)O4)[C@@]3(C)CC[C@@H]12` : AC50 is > 30 µM

What the record says about `CCOC(=O)[C@H](CCc1ccccc1)N[C@@H](C)C(=O)N1Cc2ccccc2C[C@H]1C(=O)O` : AC50 is > 10 µM

What the record says about `CC(C)C[C@H](NC(=O)[C@H](Cc1ccccc1)NC(=O)c1cnccn1)B(O)O` : AC50 is > 30 µM

What the record says about `CN1CCC(=C2c3ccccc3CC(=O)c3sccc32)CC1` : AC50 is 2.3 µM

What the record says about CCC(=O)O[C@H](CC(=O)O)C[N+](C)(C)C [LEVOCARNITINE PROPIONATE] : AC50 is > 30 µM

What the record says about CCOCC(O)COc1ccc(NC(=O)CC[S+](C)C)cc1 (configuration not stated) : AC50 is > 30 µM

What the record says about `CN(C)[C@@H]1C(O)=C(C(=O)NCN2CCCC2)C(=O)[C@@]2(O)C(O)=C3C(=O)c4c(O)cccc4[C@@](C)(O)[C@H]3C[C@@H]12` : AC50 is > 30 µM

What the record says about Cc1ccc(S(=O)(=O)NC(=O)N[C@H]2[C@H]3CC[C@@](C)([C@H]2O)C3(C)C)cc1 [GLIBORNURIDE] : AC50 is > 30 µM

* * *

I'd be grateful if you could share measured AC50 for these entries.

Record CCN1C(=O)NC(c2ccccc2)C1=O (stereo unspecified) [ETHOTOIN] / Kappa-type opioid receptor (Homo sapiens), AC50 recorded as > 30 µM

Record OCC(O)COc1ccc(Cl)cc1 (stereo unspecified) / Kappa-type opioid receptor (Homo sapiens), AC50 recorded as > 10 µM

Record CCC(=O)[C@@]1(C)[C@H](C)C[C@H]2[C@@H]3CCC4=CC(=O)C=C[C@]4(C)[C@H]3[C@@H](O)C[C@@]21C [RIMEXOLONE] / Kappa-type opioid receptor (Homo sapiens), AC50 recorded as > 10 µM

Record CN(C)CCOCC(=O)NC12CC3CC(CC(C3)C1)C2 [TROMANTADINE] / Kappa-type opioid receptor (Homo sapiens), AC50 recorded as 11 µM

Record Cc1cnc(Nc2ccc(OCCN3CCCC3)cc2)nc1Nc1cccc(S(=O)(=O)NC(C)(C)C)c1 [FEDRATINIB] / Kappa-type opioid receptor (Homo sapiens), AC50 recorded as 15.4 µM

Record CC(=O)Oc1ccccc1C(=O)O [ASPIRIN] / Kappa-type opioid receptor (Homo sapiens), AC50 recorded as > 10 µM

* * *

Molecular target: Sodium channel protein type 5 subunit alpha (Homo sapiens); note: assay procedure not described here
Sequence (Q14524 whole entry): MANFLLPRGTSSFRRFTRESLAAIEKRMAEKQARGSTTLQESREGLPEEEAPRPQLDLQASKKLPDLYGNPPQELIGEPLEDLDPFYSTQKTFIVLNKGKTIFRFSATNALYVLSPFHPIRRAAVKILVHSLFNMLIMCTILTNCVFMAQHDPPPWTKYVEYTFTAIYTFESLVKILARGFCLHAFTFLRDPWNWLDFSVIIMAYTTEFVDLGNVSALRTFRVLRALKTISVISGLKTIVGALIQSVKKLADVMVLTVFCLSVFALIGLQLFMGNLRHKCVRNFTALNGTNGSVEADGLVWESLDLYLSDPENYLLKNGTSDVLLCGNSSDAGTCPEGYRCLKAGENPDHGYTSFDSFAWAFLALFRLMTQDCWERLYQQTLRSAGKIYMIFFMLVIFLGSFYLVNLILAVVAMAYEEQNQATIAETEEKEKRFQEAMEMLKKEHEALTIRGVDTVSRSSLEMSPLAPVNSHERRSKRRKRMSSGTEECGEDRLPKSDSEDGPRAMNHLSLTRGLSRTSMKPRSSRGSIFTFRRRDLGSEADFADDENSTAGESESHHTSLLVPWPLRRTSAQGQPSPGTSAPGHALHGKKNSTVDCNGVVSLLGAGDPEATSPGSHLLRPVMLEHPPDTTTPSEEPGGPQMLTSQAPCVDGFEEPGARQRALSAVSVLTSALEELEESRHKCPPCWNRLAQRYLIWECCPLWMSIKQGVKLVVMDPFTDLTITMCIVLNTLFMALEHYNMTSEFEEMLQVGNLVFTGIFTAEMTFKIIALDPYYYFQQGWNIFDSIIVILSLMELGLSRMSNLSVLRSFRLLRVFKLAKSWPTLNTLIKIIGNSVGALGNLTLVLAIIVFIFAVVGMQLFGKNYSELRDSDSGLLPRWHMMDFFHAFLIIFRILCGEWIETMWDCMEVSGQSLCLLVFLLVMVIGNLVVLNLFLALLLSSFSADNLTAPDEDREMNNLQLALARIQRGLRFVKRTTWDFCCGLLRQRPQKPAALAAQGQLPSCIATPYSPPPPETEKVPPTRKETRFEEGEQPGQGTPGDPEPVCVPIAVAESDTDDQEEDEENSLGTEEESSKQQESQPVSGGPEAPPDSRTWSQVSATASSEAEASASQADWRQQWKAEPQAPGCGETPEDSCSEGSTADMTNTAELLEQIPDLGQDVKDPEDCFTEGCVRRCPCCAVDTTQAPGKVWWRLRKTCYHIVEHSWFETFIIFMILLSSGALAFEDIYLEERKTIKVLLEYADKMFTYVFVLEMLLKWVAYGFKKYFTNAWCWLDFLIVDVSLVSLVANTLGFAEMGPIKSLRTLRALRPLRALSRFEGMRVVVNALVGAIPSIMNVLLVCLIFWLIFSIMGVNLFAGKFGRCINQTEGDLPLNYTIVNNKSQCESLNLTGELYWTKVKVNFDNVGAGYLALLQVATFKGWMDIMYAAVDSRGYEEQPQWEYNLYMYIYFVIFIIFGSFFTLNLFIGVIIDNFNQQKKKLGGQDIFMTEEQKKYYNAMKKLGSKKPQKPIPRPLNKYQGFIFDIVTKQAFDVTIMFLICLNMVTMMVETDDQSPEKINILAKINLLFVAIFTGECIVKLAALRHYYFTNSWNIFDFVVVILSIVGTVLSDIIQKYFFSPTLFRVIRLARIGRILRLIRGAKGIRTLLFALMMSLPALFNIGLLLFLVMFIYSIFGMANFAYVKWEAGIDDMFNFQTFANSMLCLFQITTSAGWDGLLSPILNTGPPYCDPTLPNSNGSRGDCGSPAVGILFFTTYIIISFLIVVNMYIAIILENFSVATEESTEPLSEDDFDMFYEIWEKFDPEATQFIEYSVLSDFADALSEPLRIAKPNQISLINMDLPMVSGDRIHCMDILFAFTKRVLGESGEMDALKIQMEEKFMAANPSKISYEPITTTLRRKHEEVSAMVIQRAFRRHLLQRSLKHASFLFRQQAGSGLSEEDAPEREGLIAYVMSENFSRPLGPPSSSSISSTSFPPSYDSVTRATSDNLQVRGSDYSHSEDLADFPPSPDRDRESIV
Assay type: functional, cell-based
value-type: AC50

What the record says about `C[C@H](Nc1ncnc2[nH]cnc12)c1cc2cccc(Cl)c2c(=O)n1-c1ccccc1` : AC50 is > 50 µM

What the record says about `CO[C@@H]1[C@@H](OC(N)=O)[C@@H](O)[C@H](Oc2ccc3c(O)c(NC(=O)c4ccc(O)c(CC=C(C)C)c4)c(=O)oc3c2C)OC1(C)C` : AC50 is > 50 µM

What the record says about COc1ccc2c3c1O[C@H]1C(=O)CC[C@H]4[C@@H](C2)N(C)CC[C@]314 [HYDROCODONE] : AC50 is > 50 µM

What the record says about `O=C(O)c1ccc2nc(-c3cc(Cl)cc(Cl)c3)oc2c1` : AC50 is > 30 µM

* * *

Molecular target: Glutamate receptor ionotropic, NMDA 1 (Rattus norvegicus, UniProt P35439); note: assay procedure not described here
I'd be grateful if you could share measured AC50 for these entries.

Record `CCOC(=O)[C@H](CCc1ccccc1)N[C@@H](C)C(=O)N1Cc2ccccc2C[C@H]1C(=O)O` / Glutamate receptor ionotropic, NMDA 1 (Rattus norvegicus, UniProt P35439), AC50 recorded as > 10 µM

Record COc1cc(N)cn[n+]1-c1ccccc1 [AMEZINIUM METILSULFATE] / Glutamate receptor ionotropic, NMDA 1 (Rattus norvegicus, UniProt P35439), AC50 recorded as > 30 µM

Record CC1(C)O[C@@H]2C[C@H]3[C@@H]4CCC5=CC(=O)C=C[C@]5(C)[C@@]4(F)[C@@H](O)C[C@]3(C)[C@]2(C(=O)CO)O1 [TRIAMCINOLONE ACETONIDE] / Glutamate receptor ionotropic, NMDA 1 (Rattus norvegicus, UniProt P35439), AC50 recorded as > 30 µM

Record CCN(CCO)CCCC(C)Nc1ccnc2cc(Cl)ccc12 (stereo not drawn) [HYDROXYCHLOROQUINE] / Glutamate receptor ionotropic, NMDA 1 (Rattus norvegicus, UniProt P35439), AC50 recorded as > 10 µM

Record `C=C(c1ccccc1OCc1cccc(Cl)c1)n1ccnc1` / Glutamate receptor ionotropic, NMDA 1 (Rattus norvegicus, UniProt P35439), AC50 recorded as > 10 µM

Record `CCN(C(C)=O)c1cccc(-c2ccnc3c(C#N)cnn23)c1` / Glutamate receptor ionotropic, NMDA 1 (Rattus norvegicus, UniProt P35439), AC50 recorded as > 10 µM

Record `CS(=O)(=O)NC(=O)CCC/C=C\C[C@H]1C(=O)C[C@@H](O)[C@@H]1/C=C/[C@@H](O)COc1ccccc1` / Glutamate receptor ionotropic, NMDA 1 (Rattus norvegicus, UniProt P35439), AC50 recorded as > 30 µM

Record `COC(=O)[C@H]1[C@H]2C[C@@H]3c4[nH]c5ccccc5c4CCN3C[C@H]2C[C@@H](OC(=O)c2cc(OC)c(OC)c(OC)c2)[C@@H]1OC` / Glutamate receptor ionotropic, NMDA 1 (Rattus norvegicus, UniProt P35439), AC50 recorded as > 10 µM

Record `NS(=O)(=O)c1ccc(N2CCCCS2(=O)=O)cc1` / Glutamate receptor ionotropic, NMDA 1 (Rattus norvegicus, UniProt P35439), AC50 recorded as > 30 µM

Record CC(C)NCC(O)COc1ccc(CC(N)=O)cc1 (stereo not drawn) / Glutamate receptor ionotropic, NMDA 1 (Rattus norvegicus, UniProt P35439), AC50 recorded as > 30 µM

Record O=C(c1ccccc1)c1ccc2n1CCC2C(=O)O (stereo not drawn) / Glutamate receptor ionotropic, NMDA 1 (Rattus norvegicus, UniProt P35439), AC50 recorded as > 30 µM

Record `C[C@@H](Cc1ccccc1)N(C)Cc1ccccc1` / Glutamate receptor ionotropic, NMDA 1 (Rattus norvegicus, UniProt P35439), AC50 recorded as > 10 µM

Record CCN(CC)C(C)C(=O)c1ccccc1 (stereo not drawn) / Glutamate receptor ionotropic, NMDA 1 (Rattus norvegicus, UniProt P35439), AC50 recorded as > 10 µM

* * *

I'd be grateful if you could share measured AC50 for these entries.
Biological target: Voltage-dependent L-type calcium channel subunit alpha-1C (Rattus norvegicus); note: assay procedure not described here
Sequence (P22002 whole entry): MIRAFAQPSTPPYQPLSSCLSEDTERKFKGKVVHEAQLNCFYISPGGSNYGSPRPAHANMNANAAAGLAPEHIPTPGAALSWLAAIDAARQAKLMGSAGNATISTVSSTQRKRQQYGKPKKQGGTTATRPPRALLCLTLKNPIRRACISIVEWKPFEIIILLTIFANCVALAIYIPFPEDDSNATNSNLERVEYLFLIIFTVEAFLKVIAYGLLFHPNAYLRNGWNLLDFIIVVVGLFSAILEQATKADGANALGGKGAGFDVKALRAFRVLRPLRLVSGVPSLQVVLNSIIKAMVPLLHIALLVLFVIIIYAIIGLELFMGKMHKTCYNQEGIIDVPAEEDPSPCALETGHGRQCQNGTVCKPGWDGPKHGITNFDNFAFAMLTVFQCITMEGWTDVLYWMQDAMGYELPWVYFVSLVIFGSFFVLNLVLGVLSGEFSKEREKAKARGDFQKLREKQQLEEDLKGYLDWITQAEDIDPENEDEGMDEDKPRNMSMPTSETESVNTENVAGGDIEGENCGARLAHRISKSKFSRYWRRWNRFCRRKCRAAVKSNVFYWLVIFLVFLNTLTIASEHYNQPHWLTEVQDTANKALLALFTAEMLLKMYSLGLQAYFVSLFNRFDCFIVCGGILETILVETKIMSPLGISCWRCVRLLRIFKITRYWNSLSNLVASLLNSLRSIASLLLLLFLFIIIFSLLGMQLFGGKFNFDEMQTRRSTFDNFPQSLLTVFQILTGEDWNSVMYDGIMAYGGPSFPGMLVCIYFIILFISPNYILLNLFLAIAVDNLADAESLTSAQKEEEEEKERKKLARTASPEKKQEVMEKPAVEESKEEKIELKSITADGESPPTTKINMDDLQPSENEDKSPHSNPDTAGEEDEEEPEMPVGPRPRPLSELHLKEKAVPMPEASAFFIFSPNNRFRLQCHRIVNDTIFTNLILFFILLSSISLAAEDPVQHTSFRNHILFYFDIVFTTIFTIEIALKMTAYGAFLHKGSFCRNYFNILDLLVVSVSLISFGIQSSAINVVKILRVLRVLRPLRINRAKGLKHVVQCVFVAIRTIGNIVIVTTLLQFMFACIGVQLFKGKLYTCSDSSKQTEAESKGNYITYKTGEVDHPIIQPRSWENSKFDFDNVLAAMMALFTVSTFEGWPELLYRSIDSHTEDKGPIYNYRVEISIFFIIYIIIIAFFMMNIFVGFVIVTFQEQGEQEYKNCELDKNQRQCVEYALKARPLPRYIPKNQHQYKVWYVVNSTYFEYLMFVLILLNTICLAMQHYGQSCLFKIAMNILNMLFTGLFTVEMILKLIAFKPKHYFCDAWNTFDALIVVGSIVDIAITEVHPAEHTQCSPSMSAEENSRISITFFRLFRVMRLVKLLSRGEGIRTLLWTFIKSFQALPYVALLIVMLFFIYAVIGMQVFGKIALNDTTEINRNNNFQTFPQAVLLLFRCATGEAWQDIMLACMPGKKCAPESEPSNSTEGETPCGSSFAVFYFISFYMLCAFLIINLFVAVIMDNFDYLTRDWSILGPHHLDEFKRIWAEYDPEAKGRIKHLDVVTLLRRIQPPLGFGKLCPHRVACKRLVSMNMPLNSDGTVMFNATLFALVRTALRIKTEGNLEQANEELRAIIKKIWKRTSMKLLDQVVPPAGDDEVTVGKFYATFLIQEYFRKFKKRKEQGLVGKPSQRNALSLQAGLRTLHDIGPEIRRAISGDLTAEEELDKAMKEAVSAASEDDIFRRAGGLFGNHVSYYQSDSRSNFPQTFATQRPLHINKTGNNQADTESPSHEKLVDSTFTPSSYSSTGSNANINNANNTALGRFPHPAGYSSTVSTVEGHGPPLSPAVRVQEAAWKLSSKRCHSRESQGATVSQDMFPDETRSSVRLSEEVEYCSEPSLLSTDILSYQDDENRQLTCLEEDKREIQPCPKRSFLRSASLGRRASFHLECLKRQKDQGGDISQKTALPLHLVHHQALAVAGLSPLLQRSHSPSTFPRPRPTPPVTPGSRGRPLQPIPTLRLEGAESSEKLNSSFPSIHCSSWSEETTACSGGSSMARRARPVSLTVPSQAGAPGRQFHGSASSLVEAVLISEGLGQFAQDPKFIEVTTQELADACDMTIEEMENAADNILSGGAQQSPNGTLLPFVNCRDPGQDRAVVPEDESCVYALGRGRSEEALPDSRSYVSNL
Assay type: functional
Where a SMILES comes first, the peptide text is derived from it.

What the record says about `CC(C)C[C@H](NC(=O)[C@H](Cc1ccccc1)NC(=O)c1cnccn1)B(O)O` : AC50 is > 30 µM

What the record says about `CCN(CC)CCn1c(=O)c(Cc2ccc(OC)cc2)nc2ccccc21` : AC50 is > 30 µM

What the record says about `CN1CCC(=C2c3ccccc3CC(=O)c3sccc32)CC1` : AC50 is > 10 µM

What the record says about `CCN(C(C)=O)c1cccc(-c2ccnc3c(C#N)cnn23)c1` : AC50 is > 10 µM

What the record says about OCCOCCN1CCN(C(c2ccccc2)c2ccc(Cl)cc2)CC1 (configuration not stated) [HYDROXYZINE] : AC50 is > 10 µM

What the record says about `C=C(c1ccccc1OCc1cccc(Cl)c1)n1ccnc1` : AC50 is 18.8 µM

What the record says about Cc1c(C)c2c(c(C)c1O)CCC(C)(COc1ccc(CC3SC(=O)NC3=O)cc1)O2 (configuration not stated) : AC50 is 21 µM

What the record says about COC(=O)CCc1ccc(OCC(O)CNC(C)C)cc1 (configuration not stated) : AC50 is > 30 µM

What the record says about `Cc1ccc(O)c([C@H](CCN(C(C)C)C(C)C)c2ccccc2)c1` : AC50 is > 10 µM

What the record says about `C[C@]12C=CC(=O)C=C1CC[C@@H]1[C@@H]2[C@@H](O)C[C@@]2(C)[C@H]1CC[C@]2(O)C(=O)CO` : AC50 is > 10 µM

What the record says about `NCCCCCC(=O)O` : AC50 is > 10 µM

What the record says about C[C@H](N)C(=O)N[C@@H](CCC(N)=O)C(=O)O [ALANYL GLUTAMINE] (H-Ala-Gln-OH) : AC50 is > 30 µM

What the record says about CCC(NC(C)C)C(O)c1ccc(O)c(O)c1 (configuration not stated) : AC50 is > 30 µM

What the record says about `C[C@]12CCC(=O)C=C1C=C[C@@H]1[C@@H]2CC[C@@]2(C)[C@H]1CC[C@@]21CCC(=O)O1` : AC50 is > 30 µM

What the record says about CCN(CC)C(C)C(=O)c1ccccc1 (configuration not stated) : AC50 is > 10 µM

What the record says about CCOC(=O)C1=C(C)NC(C)=C(C(=O)OC)C1c1cccc(Cl)c1Cl (configuration not stated) : AC50 is 0.0204 µM

What the record says about `Nc1ccc(S(=O)(=O)Nc2ncccn2)cc1` : AC50 is > 10 µM

What the record says about `CC(C)CN(C[C@@H](O)[C@H](Cc1ccccc1)NC(=O)O[C@H]1CCOC1)S(=O)(=O)c1ccc(N)cc1` : AC50 is > 10 µM

What the record says about N=C(N)NC(=O)c1nc(Cl)c(N)nc1N [AMILORIDE] : AC50 is > 30 µM

What the record says about `CCN(CC)Cc1nccn1-c1ccc([N+](=O)[O-])cc1C(=O)c1ccccc1Cl` : AC50 is > 30 µM

What the record says about `Cc1ccc(-c2ncc(Cl)cc2-c2ccc(S(C)(=O)=O)cc2)cn1` : AC50 is > 10 µM

What the record says about `C[C@H](CS)C(=O)N1CCC[C@H]1C(=O)O` : AC50 is > 10 µM

What the record says about `C[C@]12CCC(=O)C=C1CC[C@H]1[C@@H]3CC[C@](O)(C(=O)CO)[C@@]3(C)C[C@H](O)[C@@]12F` : AC50 is > 10 µM

What the record says about CC(=O)OCC(=O)[C@@]1(O)CC[C@H]2[C@@H]3CCC4=CC(=O)CC[C@]4(C)[C@@]3(F)[C@@H](O)C[C@@]21C [FLUDROCORTISONE ACETATE] : AC50 is > 30 µM

What the record says about `C=CC1=C(C(=O)O)N2C(=O)[C@@H](NC(=O)/C(=N\O)c3csc(N)n3)[C@H]2SC1` : AC50 is > 10 µM

What the record says about CC1=C(/C=C/C(C)=C/C=C/C(C)=C/C(=O)Oc2c(C)c(C)c3c(c2C)CCC(C)(CCCC(C)CCCC(C)CCCC(C)C)O3)C(C)(C)CCC1 (configuration not stated) : AC50 is > 30 µM

What the record says about CCOC(=O)O[C@]1(C(=O)COC(=O)CC)CC[C@H]2[C@@H]3CCC4=CC(=O)C=C[C@]4(C)[C@H]3[C@@H](O)C[C@@]21C [PREDNICARBATE] : AC50 is > 10 µM

What the record says about `Nc1nc(Cl)nc2c1ncn2[C@@H]1O[C@H](CO)[C@@H](O)[C@@H]1F` : AC50 is > 30 µM

What the record says about `CN(C)CCN(Cc1ccccc1)c1ccccn1` : AC50 is > 10 µM

What the record says about CC1NCCOC1c1ccccc1 (configuration not stated) : AC50 is > 10 µM

What the record says about `O=C(O)COC(=O)Cc1ccccc1Nc1c(Cl)cccc1Cl` : AC50 is > 10 µM

What the record says about CC1Cc2ccccc2N1NC(=O)c1ccc(Cl)c(S(N)(=O)=O)c1 (configuration not stated) [INDAPAMIDE] : AC50 is > 10 µM
